Exercise: state measured EC50 for each of the compounds provided.
Tested on: Zymoseptoria tritici
Test: microbe, parasite or virus in culture
Format: cell-based
Conditions: Zymoseptoria tritici
Answers are plain numbers, in µg/mL.

Guide cases for EC50, answers given:
compound: Cc1cccc(N(C)C(=S)Oc2ccc3ccccc3c2)c1 [Tolnaftate, tolnaftate]
numeric value: 0.17

compound: O=C(Nc1ccccc1-c1ccc(Cl)cc1)c1cccnc1Cl [Boscalid, boscalid]
numeric value: 0.16

compound: Cn1cc(C(=O)Nc2ccccc2-c2cc(F)c(F)c(F)c2)c(C(F)F)n1 [Fluxapyroxad]
numeric value: 0.04

compound: Cn1cc(C(=O)Nc2ccc(F)cc2-c2ccc(Cl)c(Cl)c2)c(C(F)F)n1 [Bixafen, bixafen]
numeric value: 0.03

compound: CC(C)CC(C)c1sccc1NC(=O)c1cn(C)nc1C(F)(F)F (stereo not shown) [Penthiopyrad, penthiopyrad]
numeric value: 0.05

Would you be so kind as to report EC50 for each listed record?
1. N#Cc1c(Cl)c(Cl)c(Cl)c(C#N)c1Cl [Chlorothalonil, chlorothalonil]
2. O=C(NCCc1ncc(C(F)(F)F)cc1Cl)c1ccccc1C(F)(F)F [Fluopyram, fluopyram]

*A*
0.13
0.2
